Would you mind telling me the reported hERG current change (%, negative = inhibition) at 10uM of each entry?
- target entity: human ether-à-go-go-related gene (hERG) potassium channel (human, UniProt Q12809);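 further: peak tail current of the secondary pulse compared with the same well before compound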
- Sequence (Q12809 whole entry, looked up): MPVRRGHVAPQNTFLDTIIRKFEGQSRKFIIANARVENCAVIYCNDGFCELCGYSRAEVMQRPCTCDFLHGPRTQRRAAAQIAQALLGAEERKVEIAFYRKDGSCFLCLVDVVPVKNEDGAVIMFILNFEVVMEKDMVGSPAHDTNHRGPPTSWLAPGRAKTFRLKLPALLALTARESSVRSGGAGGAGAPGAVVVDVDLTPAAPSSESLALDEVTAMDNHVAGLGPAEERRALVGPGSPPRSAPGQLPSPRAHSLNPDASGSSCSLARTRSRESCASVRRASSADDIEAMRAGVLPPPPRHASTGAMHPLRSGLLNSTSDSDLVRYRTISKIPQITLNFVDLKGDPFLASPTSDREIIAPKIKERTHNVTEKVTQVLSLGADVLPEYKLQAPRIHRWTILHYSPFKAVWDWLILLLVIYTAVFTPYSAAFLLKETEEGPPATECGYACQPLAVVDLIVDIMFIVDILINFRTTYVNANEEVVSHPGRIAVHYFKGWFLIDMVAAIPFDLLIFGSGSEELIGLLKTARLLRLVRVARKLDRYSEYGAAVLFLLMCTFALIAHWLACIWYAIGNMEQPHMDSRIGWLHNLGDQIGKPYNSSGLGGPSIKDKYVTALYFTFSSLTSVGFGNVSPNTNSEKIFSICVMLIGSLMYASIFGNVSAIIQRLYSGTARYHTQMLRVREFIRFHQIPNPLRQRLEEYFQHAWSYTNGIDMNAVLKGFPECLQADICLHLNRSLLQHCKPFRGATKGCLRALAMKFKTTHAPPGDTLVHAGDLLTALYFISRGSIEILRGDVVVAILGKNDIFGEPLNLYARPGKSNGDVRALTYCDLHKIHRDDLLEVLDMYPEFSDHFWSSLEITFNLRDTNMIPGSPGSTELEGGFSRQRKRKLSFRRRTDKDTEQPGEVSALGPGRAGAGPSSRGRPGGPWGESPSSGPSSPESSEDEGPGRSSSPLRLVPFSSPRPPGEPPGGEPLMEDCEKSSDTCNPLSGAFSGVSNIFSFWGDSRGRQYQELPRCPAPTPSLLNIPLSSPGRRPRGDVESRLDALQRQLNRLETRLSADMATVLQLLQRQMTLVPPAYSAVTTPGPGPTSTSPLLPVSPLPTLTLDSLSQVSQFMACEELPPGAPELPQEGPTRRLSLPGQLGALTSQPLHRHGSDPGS
- method summary: primary screen, population patch clamp on CHO cells stably expressing hERG; higher = less effect of the substance
- Experimental: Briefly, Chinese hamster ovary (CHO) cells stably expressing the hERG channel were dislodged from tissue culture flasks and dispensed into PPC plates. […] During the recording, background leak currents were estimated by a 100 ms step to -80 mV from an initial holding potential of -70 mV and subtracted from the subsequent current measurement. The campaign was conducted in two phases using slight differences in recording protocol. […]
The whole screen tested about 310,000 compounds, of which about 14,000 (4.5%) showed an effect of 50% or more. The effect is printed as a negative number. What follows is part of a selection rich in strong results, with near analogues and random picks from the rest.
# value in %; strip the unit string

*Q* Fill in hERG current change (%, negative = inhibition) at 10uM for record CC1CCCCN1S(=O)(=O)c1ccc(C(=O)Nc2nnc(-c3ccco3)o2)cc1 (centres unmarked)
*A* -2.35

*Q* Fill in hERG current change (%, negative = inhibition) at 10uM for record `COc1cc(C(=O)NCc2ccco2)c(Br)c(OC)c1OC`
*A* -4.22

*Q* Fill in hERG current change (%, negative = inhibition) at 10uM for record `CCCCNC(=S)N(C)/N=C/c1ccc(F)cc1`
*A* -8.72

*Q* Fill in hERG current change (%, negative = inhibition) at 10uM for record `Cc1cc(Nc2ccc(F)cc2C)n2ncnc2n1`
*A* -4.78

*Q* Fill in hERG current change (%, negative = inhibition) at 10uM for record `CCCCNC(=S)N(C)/N=C/c1ccccc1F`
*A* 2.14

*Q* Fill in hERG current change (%, negative = inhibition) at 10uM for record `CN=C(NC1CCCCC1)c1ccc([N+](=O)[O-])cc1`
*A* 1.68

*Q* Fill in hERG current change (%, negative = inhibition) at 10uM for record `COC(=O)c1c(C)oc2cc(Br)c(OCC(=O)C(C)(C)C)cc12`
*A* 6.12

*Q* Fill in hERG current change (%, negative = inhibition) at 10uM for record `O=C(N/N=C/c1cc([N+](=O)[O-])ccc1O)C12CC3CC(CC(C3)C1)C2`
*A* 8.39

*Q* Fill in hERG current change (%, negative = inhibition) at 10uM for record O=C(NC1CCCC1)C(c1cccnc1)N(CCc1ccccc1)C(=O)c1ccco1 (centres unmarked)
*A* -69

*Q* Fill in hERG current change (%, negative = inhibition) at 10uM for record `COc1cccc(C(=O)N(Cc2ccccc2)Cc2cc3cc4c(cc3[nH]c2=O)OCCO4)c1`
*A* -25.3

*Q* Fill in hERG current change (%, negative = inhibition) at 10uM for record `Cc1cc(C)n(C(=O)CNC(=O)c2ccco2)n1`
*A* 11.9

*Q* Fill in hERG current change (%, negative = inhibition) at 10uM for record CCc1cc(C(c2cccc(OC)c2)N2CCOCC2)c(NC(=O)c2ccccc2)s1 (centres unmarked)
*A* -1.91

*Q* Fill in hERG current change (%, negative = inhibition) at 10uM for record O=C(NC(Cc1c[nH]c2ccccc12)C(=O)N/N=C/c1ccc(Br)cc1)c1cccs1 (centres unmarked)
*A* 8.02

*Q* Fill in hERG current change (%, negative = inhibition) at 10uM for record `COc1ccc(-n2cnnc2SCC(=O)Nc2cc(S(=O)(=O)N3CCCCC3)ccc2C)cc1`
*A* -84

*Q* Fill in hERG current change (%, negative = inhibition) at 10uM for record `Cc1cc2cc(CCNC(=O)CC(C)(C)C)c(=O)[nH]c2cc1C`
*A* 7.53

*Q* Fill in hERG current change (%, negative = inhibition) at 10uM for record O=C(NCC(=O)N(CCc1ccccc1)C(C(=O)NC1CCCC1)c1cccnc1)c1ccco1 (centres unmarked)
*A* -43.8

*Q* Fill in hERG current change (%, negative = inhibition) at 10uM for record `CN(c1ccc(C(=O)N2CCN(Cc3ccccc3)CC2)cc1)S(=O)(=O)c1ccc(Cl)cc1`
*A* -24.9

*Q* Fill in hERG current change (%, negative = inhibition) at 10uM for record O=C1CC(Sc2nnc(-c3ccccc3)o2)C(=O)N1c1ccccc1 (centres unmarked)
*A* 3.12

*Q* Fill in hERG current change (%, negative = inhibition) at 10uM for record `CCCCNC(=S)N(C)/N=C/c1ccc2c(c1)OCO2`
*A* -50.1

*Q* Fill in hERG current change (%, negative = inhibition) at 10uM for record `Cc1ccc(S(=O)(=O)N2CCCCC2)cc1NC(=O)CSc1nncn1-c1ccccc1`
*A* -35.2

----------
- target entity: human ether-à-go-go-related gene (hERG) potassium channel (human);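 further: peak tail current of the secondary pulse compared with the same well before compound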
- method summary: primary screen, population patch clamp on CHO cells stably expressing hERG; higher = less effect of the substance
The campaign covered roughly 310,000 compounds. About 14,000 (4.5%) showed an effect of 50% or more. Effects have a minus sign here. The list comes from a sample in which strong results are over-represented; it also holds close analogues and randomly drawn compounds.
Would you mind telling me the reported hERG current change (%, negative = inhibition) at 10uM of each entry?
# value in %; strip the unit string

*Q* Fill in hERG current change (%, negative = inhibition) at 10uM for record CCOc1ccc(C(C(=O)NC(C)(C)C)N(CCOC)C(=O)CCC(=O)Nc2ccccn2)cc1 (stereo not shown)
*A* -5.95

*Q* Fill in hERG current change (%, negative = inhibition) at 10uM for record `O=c1[nH]nc(N/N=C/c2ccc(Cl)cc2Cl)c(=O)[nH]1`
*A* -1.17

*Q* Fill in hERG current change (%, negative = inhibition) at 10uM for record `COc1ccc(-c2ccc(SCc3cccnc3)nn2)cc1OC`
*A* 29

*Q* Fill in hERG current change (%, negative = inhibition) at 10uM for record CCC(C)C1Nc2ccc(C(=O)NCCc3ccc(OC)c(OC)c3)cc2NC1=O (stereo not shown)
*A* 20.4

*Q* Fill in hERG current change (%, negative = inhibition) at 10uM for record Cc1ccc(C2Nc3ccccc3C(=O)N2Cc2ccco2)cc1 (stereo not shown)
*A* -32.5

*Q* Fill in hERG current change (%, negative = inhibition) at 10uM for record COC(=O)C(C#N)c1nc2ccccc2nc1N1CCN(Cc2ccc3c(c2)OCO3)CC1 (stereo not shown)
*A* -2.48

*Q* Fill in hERG current change (%, negative = inhibition) at 10uM for record `O=C(OCc1ccc(Br)cc1)c1ccncc1`
*A* 5.25

*Q* Fill in hERG current change (%, negative = inhibition) at 10uM for record `CCCc1ccc2oc(C(=O)N(C)Cc3nccs3)c(C)c2c1`
*A* -48.3

*Q* Fill in hERG current change (%, negative = inhibition) at 10uM for record CCCc1ccc2oc(C(=O)N(Cc3ccncc3)CC3CCCO3)c(C)c2c1 (stereo not shown)
*A* -71.6

*Q* Fill in hERG current change (%, negative = inhibition) at 10uM for record `Cn1c(=O)cc(OCCCC(=O)NCc2ccc(F)cc2Cl)c2ccccc21`
*A* -15.1

*Q* Fill in hERG current change (%, negative = inhibition) at 10uM for record `CCN1CCN(CCCN(Cc2ccco2)C(=S)Nc2ccc(C)c(Cl)c2)CC1`
*A* -64.8

*Q* Fill in hERG current change (%, negative = inhibition) at 10uM for record `Cc1nnc(NC(=O)c2ccccc2Br)s1`
*A* -1.65

*Q* Fill in hERG current change (%, negative = inhibition) at 10uM for record `CCOc1cc(S(=O)(=O)NCCCN2CCOCC2)ccc1F`
*A* 3.16

*Q* Fill in hERG current change (%, negative = inhibition) at 10uM for record `Cc1cccc(NC(=S)N(CCCN2CCOCC2)Cc2ccco2)c1`
*A* -29.9

*Q* Fill in hERG current change (%, negative = inhibition) at 10uM for record O=c1c2ccccc2nc2n1C(CBr)CS2 (stereo not shown)
*A* 15.6

*Q* Fill in hERG current change (%, negative = inhibition) at 10uM for record Cc1ccc2c(C)c(C(=O)N(Cc3ccncc3)CC3CCCO3)oc2c1C (stereo not shown)
*A* -51.9

*Q* Fill in hERG current change (%, negative = inhibition) at 10uM for record COCCOC(=O)C(C#N)c1nc2ccccc2nc1N1CCN(Cc2ccccc2)CC1 (stereo not shown)
*A* -64.3

*Q* Fill in hERG current change (%, negative = inhibition) at 10uM for record `COc1cccc(NC(=S)N(CCCN2CCN(C)CC2)Cc2ccco2)c1`
*A* -36.2

*Q* Fill in hERG current change (%, negative = inhibition) at 10uM for record CC(C)COC(=O)C(C#N)c1nc2ccccc2nc1N1CCN(Cc2ccccc2)CC1 (stereo not shown)
*A* -12

*Q* Fill in hERG current change (%, negative = inhibition) at 10uM for record Br.NC1(N)OC(CN2C(=O)c3ccccc3C2=O)CS1 (stereo not shown)
*A* -5.75

*Q* Fill in hERG current change (%, negative = inhibition) at 10uM for record `COc1ccc(CCNS(=O)(=O)c2ccc3c(c2)CCN3C(=O)C2CC2)cc1OC`
*A* 0.919

*Q* Fill in hERG current change (%, negative = inhibition) at 10uM for record `Cc1cccc(-n2nnc3c(=O)n(Cc4ccccn4)cnc32)c1`
*A* -7.65

*Q* Fill in hERG current change (%, negative = inhibition) at 10uM for record `O=C(CSc1nc2ccccc2n1CC(=O)N1CCCC1)Nc1ccc2c(c1)OCO2`
*A* -37.7

*Q* Fill in hERG current change (%, negative = inhibition) at 10uM for record `Cn1ccnc1COc1ccc(C=O)cc1`
*A* 10.4

*Q* Fill in hERG current change (%, negative = inhibition) at 10uM for record N#CC(C(=O)NC1CC1)c1nc2ccccc2nc1N1CCCC1 (stereo not shown)
*A* -7.63

*Q* Fill in hERG current change (%, negative = inhibition) at 10uM for record Cc1ccc2oc(C(=O)N(Cc3ccncc3)CC3CCCO3)c(C)c2c1 (stereo not shown)
*A* -34.9

*Q* Fill in hERG current change (%, negative = inhibition) at 10uM for record `O=C(CSc1ncnc2c1nnn2Cc1ccc(F)cc1)NC1CCCCC1`
*A* 11.8

*Q* Fill in hERG current change (%, negative = inhibition) at 10uM for record N#CC(C(=O)NC1CC1)c1nc2ccccc2nc1N1CCN(C/C=C/c2ccccc2)CC1 (stereo not shown)
*A* -58.9

*Q* Fill in hERG current change (%, negative = inhibition) at 10uM for record `C=C(C)CSc1nnc([C@H](CCSC)NC(=O)OC(C)(C)C)o1`
*A* -14.3

*Q* Fill in hERG current change (%, negative = inhibition) at 10uM for record `CCCc1ccc2oc(C(=O)N(C)Cc3cnccn3)c(C)c2c1`
*A* -10.9

*Q* Fill in hERG current change (%, negative = inhibition) at 10uM for record `CC(C)CCNS(=O)(=O)c1cc2c3c(c1)CCN3C(=O)CC2`
*A* 2.2

*Q* Fill in hERG current change (%, negative = inhibition) at 10uM for record CC1CCN(c2nc3ccccc3nc2C(C#N)C(=O)NC2CCCCC2)CC1 (stereo not shown)
*A* 10.1

*Q* Fill in hERG current change (%, negative = inhibition) at 10uM for record `CCCn1c(SCN2C(=O)c3ccccc3C2=O)nc2cc(Cl)ccc2c1=O`
*A* 16.5

*Q* Fill in hERG current change (%, negative = inhibition) at 10uM for record CN1C(=O)NC(c2ccccc2[N+](=O)[O-])C2=C1CCCC2=O (stereo not shown)
*A* 10.1

*Q* Fill in hERG current change (%, negative = inhibition) at 10uM for record `CCN1CCN(CCCN(Cc2ccco2)C(=S)Nc2ccc(Cl)c(C)c2)CC1`
*A* -74.8

*Q* Fill in hERG current change (%, negative = inhibition) at 10uM for record O=C1C(Cc2cccc([N+](=O)[O-])c2)S/C(=N/N=C/c2ccco2)N1c1ccccc1 (stereo not shown)
*A* 2.64

*Q* Fill in hERG current change (%, negative = inhibition) at 10uM for record `Cc1ccc(OCCOc2cccc3ccc(C)nc23)c([N+](=O)[O-])c1.O=C(O)C(=O)O`
*A* -10.7

*Q* Fill in hERG current change (%, negative = inhibition) at 10uM for record COCC(C)OC(=O)C(C#N)c1nc2ccccc2nc1N1CCN(Cc2ccccc2)CC1 (stereo not shown)
*A* -31

*Q* Fill in hERG current change (%, negative = inhibition) at 10uM for record `C=CCn1cc(C(=O)c2cc(Br)ccc2O)cc(C#N)c1=O`
*A* -17.5

*Q* Fill in hERG current change (%, negative = inhibition) at 10uM for record `Cc1cccc(NC(=O)CN2C(=O)N/C(=C\c3ccc(-c4cccc(C(=O)O)c4)o3)C2=O)c1`
*A* 19.3
